targetEntity: Dual specificity tyrosine-phosphorylation-regulated kinase 1B (Homo sapiens)
assayDetails: Reaction Biology data for inhibitors of DYRK1B: Probe SAR
experimentalConditions: Reaction Biology DYRK1B kinase assay, 10 uM ATP; series mostly up to 10 µM
Records with an inconclusive call do not appear. Active and inactive are the calls of the source. Calls follow the shape of the dose curve; as a rule, active = well fitted inhibition curve with a large enough effect; inconclusive = small, poorly fitted or top-dose-only effect; inactive = flat fitted curve, though single readings scatter.
Possible outcomes: active, inactive

                                    compound  answerlabel
 0  COc1ccc(-c2ccnc(NCc3ccc(Cl)c(Cl)c3)n2)cc1       active
 1  O=[N+]([O-])c1cc(Nc2nccc(-c3ccc4c(c3)OCO4)n2)cc(C(F)(F)F)c1       active
 2  Clc1ccc(CNc2nccc(-c3ccc4[nH]ncc4c3)n2)cc1Cl       active
 3  Brc1cc(Br)cc(CNc2nccc(-c3ccc4c(c3)OCO4)n2)c1       active
 4   Clc1ccc(Nc2nccc(-c3ccc4c(c3)OCO4)n2)cc1       active
 5      c1cncc(CNc2ncncc2-c2ccc3c(c2)OCO3)c1     inactive
 6  Clc1ccc(CNc2ncncc2-c2ccc3c(c2)OCO3)cc1Cl     inactive
 7   c1cncc(CNc2ccnc(-c3ccc4[nH]ncc4c3)n2)c1       active
 8  c1cc(-c2ccc3c(c2)OCO3)nc(Nc2ccc3c(c2)OCO3)n1       active
 9     COc1ccc(-c2ccnc(NCc3ccc(Cl)cc3)n2)cc1       active
10  Cc1c(-c2ccnc(NCc3ccc(Cl)cc3)n2)sc(=O)n1C       active
11    c1cncc(CNc2nccc(-c3ccc4c(c3)OCO4)n2)c1       active
12  Clc1cc(Cl)cc(CNc2nccc(-c3ccc4c(c3)OCO4)n2)c1       active
13  c1nc(NCC2CCCO2)c2cc(-c3ccc4c(c3)OCO4)ccc2n1 (centres undefined)       active
14  Cc1nc(CN(C)c2ncnc3ccc(-c4ccc5[nH]ncc5c4)cc23)cs1       active
15  Clc1cc(Cl)cc(CNc2ncncc2-c2ccc3c(c2)OCO3)c1       active
16  Clc1ccc(CNc2ccnc(-c3ccc4[nH]ncc4c3)n2)cc1Cl       active
17  Clc1ccc(CNc2nccc(-c3ccc4c(c3)OCO4)n2)cc1Cl       active
18  Brc1ccc(CNc2nccc(-c3ccc4c(c3)OCO4)n2)cc1Br       active
